Values were extracted from patent US20200085776A1.

# EXPERIMENTAL_PROTOCOL: Astaxanthin levels in plasma (PK), CHASE clinical study
# Type: in vivo, human
# MEASUREMENT_CONTEXT: human, oral, 48 mg, Group Z 48 mg BID, V6 Week 12, read-out: astaxanthin levels Median
READOUT_KIND: concentration at 12 week (ng/mL)
Give a bare numeral; the unit ng/mL is implied.

*Q* Any idea what concentration at 12 week was measured for CC1=C(/C=C/C(C)=C/C=C/C(C)=C/C=C/C=C(C)/C=C/C=C(C)/C=C/C2=C(C)C(=O)C(O)CC2(C)C)C(C)(C)CC(O)C1=O (stereo not shown) [Astaxanthin, astaxanthin] ?
*A* 2180

====

# EXPERIMENTAL_PROTOCOL: Astaxanthin levels in plasma (PK), CHASE clinical study
# Type: in vivo, human
# MEASUREMENT_CONTEXT: human, oral, 48 mg, Group Z 48 mg BID, V6 Week 12, read-out: astaxanthin levels Mean (SD)
READOUT_KIND: concentration at 12 week (ng/mL)
I only need the number, in ng/mL, no unit after it.

*Q* What value of concentration at 12 week has been recorded for this entry: CC1=C(/C=C/C(C)=C/C=C/C(C)=C/C=C/C=C(C)/C=C/C=C(C)/C=C/C2=C(C)C(=O)C(O)CC2(C)C)C(C)(C)CC(O)C1=O (stereo not shown) [Astaxanthin, astaxanthin]
*A* 2590
